All figures here come from patent US20110165161A1.

For each record, write down the corresponding relative binding activity (% of WT).
Molecular target: T1, EGFI-Cr1 N41A (human, UniProt P16422 24-63)
T1 construct: not shown: The fused constant region of human immunoglobulin gamma 1 heavy chain (Cr1)
T1 chain: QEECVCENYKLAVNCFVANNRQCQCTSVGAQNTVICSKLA
Assay: direct ELISA, coated EGFI-Cr1 fusion, 0.1 µg/ml antibody
# value in %; strip the unit string

# relative binding activity (% of WT) of murine monoclonal antibody 1F10 (antibody, mouse IgG1, V domains shown, Mouse IgG1, lambda 1, from hybridoma; also called m338-1F10.3) VH: EVKLLESGGGLVQPGGSLKLSCAASGFDFSRYWMSWVRQAPGKGLEWIGEINPDSSTMNYTPSLKDKFIISRDNAKNTLYLQMSKVRSEDTALYYCARGAYAMDYWGQGTSVTVSS VL: QAVVTQESALTTSPGETVTLTCRSSTGAVTTSNNANWVQEKPDHLFTGLIGATNNRAPGVPARFSGSLIGDKAALTITGAQTEDEAIYFCALWYINHWVFGGGTKLTVLG = 63

# relative binding activity (% of WT) of murine monoclonal antibody 2D11 (antibody, mouse IgG1, V domains shown, Mouse IgG1, kappa, from hybridoma; also called m322-2D11.19) VH: QIQLVQSGPELKKPGETVKISCKASGYTFTNYGMNWVKQAPGKGLKWMGWINTNTGEATYVEEFKGRVVFSLETSASTAYLQINNLKNEDTATYFCARIGYVWYFDVWGAGTTVTVSS VL: DIVMSQSPSSLAVSAGEKVTMSCKSSQSLFSSRTRKNYLAWYQQKPGQSPKLLIYWASTRESGVPDRFTGSGSGTDFTLTINSVQAEDLAVYYCKHSNNLFTFGSGTKLEIKR = 12

# relative binding activity (% of WT) of murine monoclonal antibody 6D11 (antibody, mouse IgG1, V domains shown, Mouse IgG1, kappa, from hybridoma; also called m338-6D11.8) VH: EVQLVESGGDLVKPGGSLKLSCAASGFAFDSYGMSWIRQTPGTRLEWVATISSGGYYTYYEDNVKGRFIISRDNAKNTLDLQMSGLKSEDAATYYCARRGNYDVDYYAMDYWGQGTSVIVSS VL: DVVLTQIPLSLPVSLGDQASISCRSSQSLEHSNGNTYLHWYLQKPGQSPKLLIYKVSNRFSGVPDRFSGSGSGTDFTLKISRVEAEDLGVYFCSQSTHVPPWTFGGGTKLEFKR = 2
